# System: Malme-3M
# procedureDetails: NCI tumour cell line growth inhibition, 48 h
The source made the active and inactive calls. Rule as the data show it: active = GI50 up to about 1.1 µM and inactive = higher.
readout: GI50

Input line: Given the molecule C=C(Cl)C(Cl)(CBr)CCC(Cl)C(C)(C)Cl (stereo unspecified) , what is its reported GI50?
Output line: 7.24 µM (inactive)

Input line: Given the molecule Nc1ccn(C=C=CCO)c(=O)n1 , what is its reported GI50?
Output line: > 100 µM (inactive)

Input line: Given the molecule CC(C)[Si](OC1=C(c2ccccc2)C(NC(=O)/C=C/c2ccc([N+](=O)[O-])cc2)CCC1)(C(C)C)C(C)C (stereo unspecified) , what is its reported GI50?
Output line: > 100 µM (inactive)

Input line: Given the molecule O=c1c2cccnc2n2n1Cc1ccccc1C2 , what is its reported GI50?
Output line: > 100 µM (inactive)

Input line: Given the molecule CCOC(=O)N1C=CC(=C2C(=C3C=CN(C(=O)OCC)C=C3)C(=C3C=CN(C(=O)OCC)C=C3)C2=C2C=CN(C(=O)OCC)C=C2)C=C1 , what is its reported GI50?
Output line: 13.5 µM (inactive)

Input line: Given the molecule CN(CCC(=O)N1CC(CCl)c2ccc([N+](=O)[O-])cc21)CCC(=O)N1CC(CCl)c2ccc([N+](=O)[O-])cc21 (stereo unspecified) , what is its reported GI50?
Output line: 10.1 µM (inactive)

Input line: Given the molecule N#CC(/C(=N\NC(N)=S)C(=O)NC1C2CC3CC(C2)CC1C3)c1ccc(Cl)cc1 (stereo unspecified) , what is its reported GI50?
Output line: > 100 µM (inactive)

Input line: Given the molecule Cc1ccc(-c2c(C#N)c(-c3ccc(Cl)cc3)c(C#N)c(=O)n2NS(=O)(=O)c2ccc(C)cc2)cc1 , what is its reported GI50?
Output line: 20.8 µM (inactive)

Input line: Given the molecule CCN(CC)CCCNc1ccc([N+](=O)[O-])c2nc3ccccc3c(N)c12 , what is its reported GI50?
Output line: 2.48 µM (inactive)

Input line: Given the molecule CCOC(=O)NC(=O)c1cn(C2CCCCC2)c(=O)[nH]c1=O , what is its reported GI50?
Output line: > 100 µM (inactive)

Input line: Given the molecule CC1NC(C(=O)O)Cc2cc(O)c(O)cc21 (stereo unspecified) , what is its reported GI50?
Output line: > 100 µM (inactive)

Input line: Given the molecule CCN(CC)C1C(=O)NC1C#Cc1ccccc1 (stereo unspecified) , what is its reported GI50?
Output line: 98.4 µM (inactive)

Input line: Given the molecule Cc1nnc2cc(C(=O)O)c3ccccc3n2c1=O , what is its reported GI50?
Output line: > 10 µM (inactive)

Input line: Given the molecule c1ccc2c(c1)c1c3n2-c2cc(on2)C3CCC1 (stereo unspecified) , what is its reported GI50?
Output line: > 100 µM (inactive)

Input line: Given the molecule COc1ccc2c3ccc4c(c3n(C)c2c1)C(=O)c1ccccc1C4=O , what is its reported GI50?
Output line: 85.7 µM (inactive)

Input line: Given the molecule O=C1/C(=C/c2ccc(Cl)cc2)NC(=S)N1CN1CCCCC1 , what is its reported GI50?
Output line: 21.5 µM (inactive)

Input line: Given the molecule Cc1ccc(-c2nc3ccccc3c(=O)n2NCC2(O)OCC(O)C(O)C2O)cc1 (stereo unspecified) , what is its reported GI50?
Output line: > 100 µM (inactive)

Input line: Given the molecule COc1ccccc1NC(=O)O/N=C(/Cl)C(C)C , what is its reported GI50?
Output line: 2.78 µM (inactive)

Input line: Given the molecule CN1[C@@H]2CCCC[C@H]2N(C)P1(=O)C(O)/C=C/c1ccccc1 (stereo partly specified) , what is its reported GI50?
Output line: > 100 µM (inactive)

Input line: Given the molecule C/C(=N\NC(=S)NCc1ccccc1)c1nc2cccnc2[nH]1 , what is its reported GI50?
Output line: 13.4 µM (inactive)

Input line: Given the molecule C[C@@H](CC(=O)OCc1ccccc1)OC1OC(COC(=O)C(C)(C)C)C(OC(=O)C(C)(C)C)C(OC(=O)C(C)(C)C)C1OC(=O)C(C)(C)C (stereo partly specified) , what is its reported GI50?
Output line: > 100 µM (inactive)
